- Test details: chemical genetic growth profiling, strain panel (AID 1159580);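 also: tested at 20 µM; growth read once vehicle control cultures reached saturation at 30 °C; 1 = growth at the plate median or of vehicle wells; lower values mean less growth of the strain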
- Run conditions: S. cerevisiae deletion strains, growth OD, locus YOR290C, strain snf2, stronger effect = lower value
Out of some 5,500 compounds screened, about 2,000 (36%) were called active. About 18% were inconclusive and are not listed. The list shows a part of the results.

- Molecule: "Nc1c2ccccc2nc2ccccc12 (tested in a mixture with another compound)"
  normalized growth: 0.379
- Molecule: "CC(C)(Sc1cc(C(C)(C)C)c(O)c(C(C)(C)C)c1)Sc1cc(C(C)(C)C)c(O)c(C(C)(C)C)c1"
  normalized growth: 1.01
- Molecule: "Cc1cc(O)cc(C)c1Cl"
  normalized growth: 0.908
- Molecule: "COc1c(-c2coc3cc4c(cc3c2=O)CC(O)C(C)(C)O4)ccc2c1C=CC(C)(C)O2 (stereo unspecified)"
  normalized growth: 0.955
- Molecule: "Nc1c2c(nc3ccccc13)CCCC2"
  normalized growth: 0.971
- Molecule: "Nc1c2c(nc3ccccc13)CCCC2O (stereo unspecified)"
  normalized growth: 0.974
- Molecule: "NNc1nncc2ccccc12"
  normalized growth: 0.942
- Molecule: "CCC(C)C(=O)O[C@H]1[C@H](O)C2C(CN3CC(C)CCC3[C@@]2(C)O)C2C[C@]34O[C@]5(O)C(OC(=O)C(C)(O)CC)CC[C@@]3(C)C5C(OC(C)=O)[C@@H](OC(C)=O)C4[C@@]21O (stereo partly specified)"
  normalized growth: 1.06
- Molecule: "O=C(Nc1ccc(C(=O)O)c(O)c1)c1ccccc1"
  normalized growth: 0.99
- Molecule: "NCCC(=O)N[C@@H](Cc1cnc[nH]1)C(=O)O"
  normalized growth: 1.02
- Molecule: "Cc1cc(O)cc(O)c1C(=O)O"
  normalized growth: 1
